Hey, just so you know, these numbers are from PubChem BioAssay.

Quick reference: composite z-score of the listed items.
- System: Sam68 (KHDRBS1)
- assay method text: Sam68 small-molecule binders, primary screen, biochemical, small-molecule microarray, 635 nm fluorescence (AID 1125);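 note: score merges 667 nm channel intensity with signal to noise over triplicate slides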
- run parameters: small-molecule microarray binding, higher = more signal
Please give the numeric answer without any surrounding text.

The cases that follow already have their composite z-score on record.
molecule | value measured
CCOC(=O)C[C@H]1[C@H](OC(=O)c2ccc(C(=O)c3ccccc3)cc2)[C@@H](NC(=O)Cc2ccc(OC)cc2)c2cc(OCCCO)ccc2N1C(=O)Cc1ccc(OC)cc1 | 1.05
O=C(NCc1ccccc1)[C@@H]1c2ccccc2C(=O)N(Cc2ccccc2Cl)[C@H]1c1ccc(CO)cc1 | 1.35
C=CCNC(=O)[C@@H]1[C@H]2C(=O)O[C@H](c3ccccc3)[C@H](c3ccccc3)N2[C@H](c2ccc(O)cc2)[C@@]12C(=O)N(C(=O)OCCOC)c1ccc(C#Cc3ccc(OC)cc3)cc12 | 1.32
O=C(O)[C@H]1C[C@H]2C(=O)N[C@@H](Cc3ccccc3)C(=O)N2[C@H]1c1ccc(O)cc1 | 1.08
COC(=O)C(CC#Cc1ccc2c(c1)[C@]1(C(=O)N2)[C@H](C(=O)O)[C@H]2C(=O)O[C@H](c3ccccc3)[C@H](c3ccccc3)N2[C@@H]1c1ccc(OCCO)cc1)C(=O)OC | 1.3
COCCOC(=O)N1C(=O)[C@@]2(c3cc(C#CC4(O)CCCCCC4)ccc31)[C@H](C(=O)NC[C@H](O)c1ccccc1)[C@H]1C(=O)O[C@H](c3ccccc3)[C@H](c3ccccc3)N1[C@@H]2c1ccccc1OCCO | 1.32
CC(C)NC(=O)[C@@H]1c2ccccc2C(=O)N(Cc2cc(F)cc(C(F)(F)F)c2)[C@H]1c1ccc(CO)cc1 | -0.096
COc1ccc([Si](C)(C)[C@H]2[C@H](CC(=O)N(CCO)Cc3ccccc3)O[C@@]3(C(=O)N(Cc4ccc(N5CCC5=O)cc4)c4ccccc43)[C@@H]2C)cc1 | -0.114
C[C@@H](OCc1ccccc1)C1NC(=O)[C@@]23C(=O)N[C@@H](Cc4ccccc4)C2[C@H](C)[C@@]2(C)O[C@H]2C3/C=C/C/C=C\CNC(=O)[C@@H]2CCCN2C1=O (stereo partly drawn) | -0.898
CC(C)N1C(=O)c2ccccc2[C@@H](C(=O)NCc2ccccc2)[C@@H]1c1ccc(CO)cc1 | 0.0504

What the record says about C=C(COC)C(=O)CC[C@H](OC(=O)c1cccnc1)c1cccc(OCCO)c1 : composite z-score is 0.579

What the record says about COCCCNC(=O)[C@@]1(C)c2ccccc2C(=O)N(Cc2cc(F)cc(C(F)(F)F)c2)[C@H]1c1ccc(CO)cc1 : composite z-score is 0.0363

What the record says about CC(C)(C)OC(=O)CC[C@]1(C(=O)NCc2ccccc2)N=C(c2ccc(OCCCO)cc2)O[C@H]1c1ccccc1N=[N+]=[N-] : composite z-score is 1.34

====

Quick reference: z-score of the listed items.
- assay method text: E. coli DRC41 culture turbidity changes, primary screen, E. coli filamentation inducer project, strain DRC41, OD650, 48 h (AID 1152);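 note: E. coli MC1000 strain DRC41 lacking acrAB efflux pump and sulA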
- run parameters: E. coli DRC41 (acrAB sulA), higher = more signal, called active from +8 up or from −8 down
Please give the numeric answer without any surrounding text.

The cases that follow already have their z-score on record.
compound | value measured
NC(=O)N1C(=O)C2C(C1=O)C1C=C(c3ccc(CO)cc3)C2C(C2CC2)N1Cc1cc2c(cc1Br)OCO2 (centres undefined) | 0.737
CCCNC(=O)[C@@H]1c2ccccc2C(=O)N(Cc2cc(C(F)(F)F)cc(C(F)(F)F)c2)[C@H]1c1ccc(CO)cc1 | 1.63
O=C(NCc1ccccc1)[C@@H]1c2ccccc2C(=O)N(Cc2ccccc2Cl)[C@H]1c1ccc(CO)cc1 | 2.17

What the record says about CCCCCN1CC=CC23O[C@@H]4/C=C\CCC(C)OC(=O)C4[C@H]2C(=O)N(CCO)[C@@H]3C1=O (some centres undefined) : z-score is 2.08

====

Quick reference: composite z-score of the listed items.
- Tested on: XIP peptide (Xip251-270)
- assay method text: small-molecule binders of XIP peptide, primary screen, biochemical, small-molecule microarray, fluorescence 635/667 nm, 0.5 µg/mL protein (AID 1183)
- run parameters: small-molecule microarray binding, fluorescence 635 nm; higher = more signal
Please give the numeric answer without any surrounding text.

compound | composite z-score
Cc1ccc(S[C@]2(C(=O)NCCN3CCOCC3)CC(=O)N(Cc3cc(C(F)(F)F)cc(C(F)(F)F)c3)[C@@H]2c2ccc(CO)cc2)cc1 | 0.0326
COCCCNC(=O)[C@@]1(Cc2ccccc2CN=[N+]=[N-])COC(c2ccc(OCCCO)cc2)=N1 | 0.866
CCOC(=O)C[C@H]1[C@H](OC(=O)c2cc3ccccc3oc2=O)[C@@H](NC(=O)c2ccccc2)c2cc(OCCCO)ccc2N1C(=O)Cc1ccc(OC)cc1 | 0.273
C=C(COC)/C(=C/C[C@H](OC(C)=O)c1cccc(OCCO)c1)c1cc(C(=O)OC)ccc1OC | 0.876

What the record says about CC(C)CNC(=O)[C@@H]1c2ccccc2C(=O)N(Cc2ccc(OC(F)(F)F)cc2)[C@H]1c1ccc(CO)cc1 : composite z-score is 0.762

What the record says about CN1C=C(C(=O)OCCS(C)(=O)=O)C(C(=O)OCCS(C)(=O)=O)=CC(CCCO)=CC1c1cccs1 (stereo not drawn) : composite z-score is -0.254

What the record says about CCCNC(=O)[C@@]1(Sc2ccc(C)cc2)CC(=O)N(Cc2cc(C(F)(F)F)cc(C(F)(F)F)c2)[C@@H]1c1ccc(CO)cc1I : composite z-score is 0.816

What the record says about COC(=O)C1=CC(c2ccc(CO)cc2)=CC(c2cccs2)N(C)C=C1C(=O)OC (stereo not drawn) : composite z-score is 0.302

====

Quick reference: z-score of the listed items.
- assay method text: modulators of HCV replicon luciferase signal, primary screen, HCV replication inhibitor project, Huh7 cells, luciferase reporter (AID 1109);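 note: huh7 hepatoma cells harbouring a luciferase neomycin HCV replicon reporter; luciferase luminescence as measure of HCV replicon replication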
- run parameters: 48 h, higher = more signal
Please give the numeric answer without any surrounding text.

The cases that follow already have their z-score on record.
molecule | z-score
[N-]=[N+]=Nc1ccccc1[C@H]1OC(c2ccc(OCCCO)cc2)=N[C@@]1(Cc1ccccc1)C(N)=O | -0.742
C=C(COC)C(=O)CC[C@H](OC(=O)c1ccccc1-c1ccccc1C(=O)O)c1ccccc1OCCO | -1.46
COCCCNC(=O)[C@@]1(CCS(=O)(=O)c2ccccc2)N=C(c2ccc(OCCCO)cc2)O[C@H]1c1ccccc1CN=[N+]=[N-] | -2.04

Here is another molecule to look at.
What the record says about C=CCC(OC(C)=O)[C@@H]1[C@@H](N(Cc2ccc(-c3cccc(C(F)(F)F)c3)o2)C(=O)c2ccc(-c3ccccc3)cc2)c2cc(OCCCO)ccc2N1C(=O)Cc1ccc(OC)cc1 (some centres undefined) : z-score is -0.169

====

- assay method text: non-specific cell cytotoxicity, dose response, cytotoxicity control for PAX8 inhibitor project, plate reader, dry powder samples (AID 743021)
- run parameters: cell line, non-specific cytotoxicity counter-screen; series mostly up to 35 µM
Results with a measured potency or affinity are listed apart. Records with an inconclusive call do not appear. The source made the active and inactive calls. No rule for the calls is given here.
reported endpoint: activity change, negative = cytotoxicity

The cases that follow already have their activity change, negative = cytotoxicity on record.
molecule | value measured
O=C(Nc1ccc(N2CCN(C(=O)c3ccccc3)CC2)cc1)c1ccc([N+](=O)[O-])o1 | inactive
CCOc1ccc2c(CC)cc(=O)oc2c1OCC | inactive
C[C@@H]1CN([C@H](C)CO)C(=O)c2cccc(NC(=O)Nc3cccc4ccccc34)c2O[C@@H]1CN(C)S(=O)(=O)c1ccc(Cl)cc1 | inactive
COc1cc([C@@H]2c3cc4c(cc3[C@H](O)[C@H]3COC(=O)[C@H]23)OCO4)cc(OC)c1OC | inactive
Brc1ccc(-n2cc(-c3ccccc3)c3c(NN4CCOCC4)ncnc32)cc1 | inactive
CCCCn1c(N)c(N(CCC(C)C)C(=O)COC(=O)c2ccc([N+](=O)[O-])s2)c(=O)[nH]c1=O | inactive
COc1ccc(-c2ccc3c(c2)[C@H]2[C@H](CCN2S(=O)(=O)c2ccc(OC)cc2)[C@H](CO)N3C)cc1 | inactive
COc1ccc(CC2C(=O)NC(C)C(=O)N(C)C3Cc4ccc(cc4)Oc4cc(ccc4O)CC(C(=O)NC(C)C(=O)NC(C)C(=O)N2C)N(C)C3=O)cc1 (stereo unspecified) | inactive
N#Cc1cccc(-c2ccc3c(c2)[C@@H]2[C@@H](CCN2S(=O)(=O)c2ccc(F)cc2)[C@@H](CO)N3)c1 | inactive
C[C@@H]1CN([C@H](C)CO)C(=O)c2cc(NS(=O)(=O)c3ccc(Cl)cc3)ccc2O[C@@H](C)CCCCO[C@@H]1CN(C)CC1CCCCC1 | inactive

What the record says about O=c1c(Cl)c(Cl)cnn1Cc1nnc(-c2ccccc2Br)o1 : activity change, negative = cytotoxicity is inactive

What the record says about C[C@@H]1CCCCO[C@@H](CN(C)CC2CCCCC2)[C@@H](C)CN([C@@H](C)CO)C(=O)c2cc(NC(=O)Nc3ccc(C(F)(F)F)cc3)ccc2O1 : activity change, negative = cytotoxicity is inactive

What the record says about C=CC[C@@H](CC(=O)N[C@H](CO)Cc1ccccc1)C(=O)N[C@H](COC(=O)[C@@H](CC=C)Cc1ccc(F)cc1)Cc1c[nH]c2ccccc12 : activity change, negative = cytotoxicity is inactive

What the record says about C[C@@H]1CCCCO[C@H](CN(C)Cc2ccncc2)[C@H](C)CN([C@H](C)CO)C(=O)c2cc(NC(=O)Nc3ccc(C(F)(F)F)cc3)ccc2O1 : activity change, negative = cytotoxicity is inactive

What the record says about CN(C)CCOc1ccc2c(c1)C(=O)C(=Cc1ncc([N+](=O)[O-])n1C)C2 : activity change, negative = cytotoxicity is inactive

What the record says about O=C1/C(=C/c2cccc(Br)c2)SC(=S)N1CCC(=O)N(CCO)c1ccccc1 : activity change, negative = cytotoxicity is inactive
